Attribution: PubChem BioAssay (NCI)

tested on: OVCAR-3 ovarian; assay: NCI tumour cell line growth inhibition, 48 h
reported.property: GI50

[[record]]
compound = "CCCCCCCCCCCCC(O)c1ccco1 (stereo not drawn)"
study_target = "OVCAR-3 ovarian"
reported_property = "GI50"
test_result = "17.9 µM"

[[record]]
compound = "CC/C(Cc1ccccc1)=C(\\c1ccc(OCCN2CCCC2)cc1)c1ccc(OC(=O)NCc2ccccc2)cc1"
study_target = "OVCAR-3 ovarian"
reported_property = "GI50"
test_result = "1.86 µM"

[[record]]
compound = "[N-]=[N+]=NCCCn1c2c(c3ccc([N+](=O)[O-])cc3c1=O)C(=O)c1cc(Br)ccc1-2"
study_target = "OVCAR-3 ovarian"
reported_property = "GI50"
test_result = "> 100 µM"

